measurement.parameters: in toluene, 293.15 K
measurement.kind: solubility (mole fraction)

Query: Entry N=C(N)NC(N)=S needs its solubility (mole fraction) filled in; supply it.
Response: 0.000149

---

measurement.parameters: in ethanol, 303.15 K
measurement.kind: solubility (mole fraction)
Enter the number alone.

Query: For the compound N=C(N)NC(N)=S , give its measured solubility (mole fraction) value.
Response: 0.00817

---

measurement.parameters: in acetonitrile, 318.15 K
measurement.kind: solubility (mole fraction)
Number only, no unit.

Query: Find the measured solubility (mole fraction) of N=C(N)NC(N)=S and report it.
Response: 0.0105

---

measurement.parameters: in acetonitrile, 313.15 K
measurement.kind: solubility (mole fraction)
Answer field: number only, no words.

Query: Supply recorded solubility (mole fraction) for N=C(N)NC(N)=S here.
Response: 0.00927

---

measurement.parameters: in acetonitrile, 323.15 K
measurement.kind: solubility (mole fraction)

Query: Note solubility (mole fraction) for the compound shown: N=C(N)NC(N)=S
Response: 0.0121

---

measurement.parameters: in ethyl acetate, 293.15 K
measurement.kind: solubility (mole fraction)
Please reply with the number alone, leaving off any unit.

Query: Consider the compound N=C(N)NC(N)=S . State its measured solubility (mole fraction).
Response: 0.00314

---

measurement.parameters: in cyclohexane, 288.15 K
measurement.kind: solubility (mole fraction)
Form: value (number only, do not type unit).

Query: Quickly give me recorded solubility (mole fraction) for N=C(N)NC(N)=S
Response: 4.3e-05

---

measurement.parameters: in isopropanol, 303.15 K
measurement.kind: solubility (mole fraction)
Hey, just send me the number, nothing else.

Query: Report solubility (mole fraction), nothing else, for this compound: N=C(N)NC(N)=S
Response: 0.00363

---

measurement.parameters: in n-butanol, 313.15 K
measurement.kind: solubility (mole fraction)
Keep it simple and answer with nothing but the number.

Query: Tell me its solubility (mole fraction) given N=C(N)NC(N)=S as the entry.
Response: 0.00432

---

measurement.parameters: in acetone, 303.15 K
measurement.kind: solubility (mole fraction)
Just the number, please.

Query: Hello, please tell me recorded solubility (mole fraction) for this one: N=C(N)NC(N)=S
Response: 0.0203

---

measurement.parameters: in cyclohexane, 298.15 K
measurement.kind: solubility (mole fraction)
Write no unit; give the number alone.

Query: Quote solubility (mole fraction) reported for N=C(N)NC(N)=S please.
Response: 6e-05

---

measurement.parameters: in n-propanol, 283.15 K
measurement.kind: solubility (mole fraction)
Keep the answer to the number alone.

Query: Please indicate solubility (mole fraction) recorded for N=C(N)NC(N)=S
Response: 0.00271

---

measurement.parameters: in acetone, 318.15 K
measurement.kind: solubility (mole fraction)
Field format: numeric only.

Query: Please give the documented solubility (mole fraction) of N=C(N)NC(N)=S
Response: 0.0324

---

measurement.parameters: in ethanol, 293.15 K
measurement.kind: solubility (mole fraction)
Enter the number alone.

Query: Identify the reported solubility (mole fraction) for the following entry. N=C(N)NC(N)=S
Response: 0.00605

---

measurement.parameters: in toluene, 283.15 K
measurement.kind: solubility (mole fraction)
# answer = number (no unit)

Query: Given N=C(N)NC(N)=S , respond with its solubility (mole fraction).
Response: 0.000126

---

measurement.parameters: in acetone, 283.15 K
measurement.kind: solubility (mole fraction)

Query: Respond only with solubility (mole fraction) recorded for N=C(N)NC(N)=S
Response: 0.0103
